molecular target: P. falciparum apicoplast DNA polymerase (Pf-apPOL) (Plasmodium falciparum, UniProt Q8ILY1); assay: Fluorescence-based high-throughput DNA polymerase assay (molecular beacon), primary screen and dose-response; assay type: biochemical; settings: DRC-2; read at 40'; concentration 10
Sequence (Q8ILY1 entry or part of it): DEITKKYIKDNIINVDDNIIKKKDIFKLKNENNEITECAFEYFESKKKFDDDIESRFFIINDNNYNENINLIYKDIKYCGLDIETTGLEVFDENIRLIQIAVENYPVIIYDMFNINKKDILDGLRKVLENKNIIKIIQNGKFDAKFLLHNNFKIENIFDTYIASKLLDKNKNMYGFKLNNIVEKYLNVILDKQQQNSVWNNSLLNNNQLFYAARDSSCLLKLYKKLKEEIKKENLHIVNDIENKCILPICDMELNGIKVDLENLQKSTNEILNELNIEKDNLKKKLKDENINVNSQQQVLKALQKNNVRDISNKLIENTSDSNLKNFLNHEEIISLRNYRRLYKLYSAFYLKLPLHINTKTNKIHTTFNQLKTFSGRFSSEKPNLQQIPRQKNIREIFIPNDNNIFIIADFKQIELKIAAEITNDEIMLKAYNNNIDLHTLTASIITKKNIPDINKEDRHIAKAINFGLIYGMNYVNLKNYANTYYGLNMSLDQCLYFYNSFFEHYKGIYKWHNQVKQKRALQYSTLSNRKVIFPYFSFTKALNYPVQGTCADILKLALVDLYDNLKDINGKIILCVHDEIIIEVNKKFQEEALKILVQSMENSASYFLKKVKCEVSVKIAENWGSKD
Class field: derived from % inhibition Apol 40' 10; ranges A (below 20%), B (20% to below 30%), C (30% or more)

Q. Assign a bin to COc1ccc(C2CC(c3ccc(Cl)cc3Cl)Nc3nc(N)nn32)cc1OC (centres unmarked)
A. C

Q. Bin? Cn1nc(-c2nnc(-c3ccccc3F)o2)c2c1CCN(C(=O)c1ccccc1Cl)C2
A. C

Q. Category of CC(=O)OCC1=C(C(=O)[O-])N2C(=O)[C@@H](NC(=O)Cc3cccs3)[C@H]2SC1.[Na+] :
A. A

Q. Class (by measured % inhibition Apol 40' 10) for O=C(CCc1csc(NC(=O)Nc2ccccc2)n1)Nc1nc2ccccc2s1
A. C

Q. // bin(item) where item = O=C(c1ccccc1)N1CCc2c(nc3cc(-c4ccccc4)[nH]n3c2=O)C1
A. C

Q. Tag the class for COc1ccccc1CC(=O)N1CCc2c(nc3cc(-c4ccccc4Cl)[nH]n3c2=O)C1
A. C

###

target: bacteriophage T4 DNA polymerase (Enterobacteria phage T4, UniProt P04415); construct: made in house; assay: Counter-screen against bacteriophage T4 DNA polymerase; assay type: biochemical; conditions: DRC-2; 180'; concentration 5
Sequence (P04415 whole entry): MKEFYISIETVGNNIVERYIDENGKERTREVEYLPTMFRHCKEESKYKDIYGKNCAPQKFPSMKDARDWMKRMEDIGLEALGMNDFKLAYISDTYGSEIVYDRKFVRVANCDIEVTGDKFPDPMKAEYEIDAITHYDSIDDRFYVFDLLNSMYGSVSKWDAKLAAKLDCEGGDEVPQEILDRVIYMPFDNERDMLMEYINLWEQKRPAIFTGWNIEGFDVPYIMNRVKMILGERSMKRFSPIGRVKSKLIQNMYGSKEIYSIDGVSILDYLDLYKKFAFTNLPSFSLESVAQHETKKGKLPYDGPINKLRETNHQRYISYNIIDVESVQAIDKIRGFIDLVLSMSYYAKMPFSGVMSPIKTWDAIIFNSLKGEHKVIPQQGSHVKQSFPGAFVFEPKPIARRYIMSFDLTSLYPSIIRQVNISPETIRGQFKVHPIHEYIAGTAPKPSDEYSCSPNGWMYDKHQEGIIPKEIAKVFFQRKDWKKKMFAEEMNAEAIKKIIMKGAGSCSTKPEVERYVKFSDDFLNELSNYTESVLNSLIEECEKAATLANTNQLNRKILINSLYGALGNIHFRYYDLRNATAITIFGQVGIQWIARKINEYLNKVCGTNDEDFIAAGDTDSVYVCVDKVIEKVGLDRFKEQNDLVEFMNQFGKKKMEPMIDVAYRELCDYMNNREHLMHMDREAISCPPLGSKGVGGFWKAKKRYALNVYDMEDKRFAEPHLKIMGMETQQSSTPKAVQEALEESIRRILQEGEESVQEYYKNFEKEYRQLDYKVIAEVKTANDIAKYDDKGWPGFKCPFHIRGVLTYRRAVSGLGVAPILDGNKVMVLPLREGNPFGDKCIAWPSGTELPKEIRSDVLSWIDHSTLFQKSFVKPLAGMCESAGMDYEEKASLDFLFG
reported.endpoint: % inhibition T4 180' (%)
Just the number please, in %, no unit attached.

# example entries with known answers
compound	% inhibition T4 180' [%]
O=c1[nH]c2ccc([N+](=O)[O-])cc2c(-c2ccccc2)c1Sc1nc2ccccc2o1 [KU0067471]	11
O=C(NC(C(Cl)Cl)S(=O)(=O)c1ccccc1)c1ccccc1 (stereo not drawn) [KU0045239]	-21

Q. Look up % inhibition T4 180' with bacteriophage T4 DNA polymerase (Enterobacteria phage T4, UniProt P04415) for this compound: CCOC(=O)C1=C2c3cc(OC)c(OC)cc3CC(C)(C)N2C(=O)C1=O [KU0193659]
A. 8

###

Some compounds, each annotated with its measured % inhibition ApPOL 90'.
target: UniProt:Q8ILY1; assay: Fluorescence-based high-throughput DNA polymerase assay (molecular beacon), primary screen and dose-response; type: biochemical; conditions: DRC-2; 90'; concentration 20
Reply with the number and its unit after it.

Consider the reported % inhibition ApPOL 90' for these compounds:
smiles.text	% inhibition ApPOL 90'
O=C1N/C(=N/c2ccccc2Cl)S/C1=C/c1ccc([N+](=O)[O-])o1	63%
Oc1ccc(N=Nc2ccccc2)c(O)c1	24%
Cc1cc(C)cc(-n2nc3c(c2NC(=O)c2ccco2)CSC3)c1	60%

Please examine the following record next.
Q. Tell me the measured % inhibition ApPOL 90' of CCOc1ccc(/C=C2\N=C(c3cc([N+](=O)[O-])cc([N+](=O)[O-])c3)OC2=O)cc1 , please.
A. 68%

###

biological target: P. falciparum apicoplast DNA polymerase (Pf-apPOL) (Plasmodium falciparum, UniProt Q8ILY1); experiment: Fluorescence-based high-throughput DNA polymerase assay (molecular beacon), primary screen and dose-response; type: biochemical; conditions: DRC-2; 40'; conc 10
Assign fulfilled to entries whose % inhibition Apol 40' meets or exceeds 40%; assign not fulfilled to the rest.

molecule	tested.target	group.label
O=c1nc(/C=C/c2ccc(Br)cc2)oc2ccccc12	P. falciparum apicoplast DNA polymerase (Pf-apPOL) (Plasmodium falciparum, UniProt Q8ILY1)	not fulfilled
Cc1ccc(CNC(=O)c2cnn3c(O)cc(CSc4ccc(Cl)cc4)nc23)cc1	P. falciparum apicoplast DNA polymerase (Pf-apPOL) (Plasmodium falciparum, UniProt Q8ILY1)	fulfilled
Cc1ccccc1NC(=O)Cn1ccc2c(=O)[nH]ccc21 [Molecule 50, O=C(Cn1ccc2c1cc[nH]c2=O)Nc1ccc(cc1)C]	P. falciparum apicoplast DNA polymerase (Pf-apPOL) (Plasmodium falciparum, UniProt Q8ILY1)	fulfilled

Q. Say whether Cc1ccc(NC(=O)Cn2ccc3c(=O)[nH]ccc32)c(C)c1 shows % inhibition Apol 40' of 40% or more.
A. not fulfilled

Q. Given the entry Cc1cccc(C2=N/C(=C\c3ccc([N+](=O)[O-])o3)C(=O)O2)c1 , answer whether its % inhibition Apol 40' meets or surpasses 40%.
A. not fulfilled

Q. Given the entry C=CCOc1c(Br)cc(Br)cc1/C=C1\SC(=N)NC1=O , answer whether its % inhibition Apol 40' meets or surpasses 40%.
A. not fulfilled

Q. Threshold query (% inhibition Apol 40' >= 40%) on O=C1NN(c2ccc(Cl)c(Cl)c2)C(=O)/C1=C/c1ccc(-c2ccc3c(c2)C(=O)OC3)o1
A. not fulfilled
